Recorded values, source ChEMBL document CHEMBL1145094.

Target: 5-hydroxytryptamine receptor 1D (Homo sapiens, UniProt P28221)
Sequence (P28221 whole entry, looked up): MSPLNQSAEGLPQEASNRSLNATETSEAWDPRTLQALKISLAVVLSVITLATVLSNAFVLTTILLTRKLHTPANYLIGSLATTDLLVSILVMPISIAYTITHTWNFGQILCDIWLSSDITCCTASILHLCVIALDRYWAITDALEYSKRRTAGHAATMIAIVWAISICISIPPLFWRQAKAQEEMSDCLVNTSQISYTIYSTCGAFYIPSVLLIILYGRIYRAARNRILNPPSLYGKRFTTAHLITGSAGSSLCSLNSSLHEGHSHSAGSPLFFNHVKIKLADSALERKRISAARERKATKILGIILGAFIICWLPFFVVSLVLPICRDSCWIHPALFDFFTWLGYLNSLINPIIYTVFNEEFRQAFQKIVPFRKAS
Readout kind: Ki

Report Ki for C[C@H](N)Cc1c[nH]c2ccc3c(c12)CCCO3 please. > 10 µM

* * *

Target: Sodium-dependent noradrenaline transporter (Homo sapiens, UniProt P23975)
Sequence (P23975 whole entry): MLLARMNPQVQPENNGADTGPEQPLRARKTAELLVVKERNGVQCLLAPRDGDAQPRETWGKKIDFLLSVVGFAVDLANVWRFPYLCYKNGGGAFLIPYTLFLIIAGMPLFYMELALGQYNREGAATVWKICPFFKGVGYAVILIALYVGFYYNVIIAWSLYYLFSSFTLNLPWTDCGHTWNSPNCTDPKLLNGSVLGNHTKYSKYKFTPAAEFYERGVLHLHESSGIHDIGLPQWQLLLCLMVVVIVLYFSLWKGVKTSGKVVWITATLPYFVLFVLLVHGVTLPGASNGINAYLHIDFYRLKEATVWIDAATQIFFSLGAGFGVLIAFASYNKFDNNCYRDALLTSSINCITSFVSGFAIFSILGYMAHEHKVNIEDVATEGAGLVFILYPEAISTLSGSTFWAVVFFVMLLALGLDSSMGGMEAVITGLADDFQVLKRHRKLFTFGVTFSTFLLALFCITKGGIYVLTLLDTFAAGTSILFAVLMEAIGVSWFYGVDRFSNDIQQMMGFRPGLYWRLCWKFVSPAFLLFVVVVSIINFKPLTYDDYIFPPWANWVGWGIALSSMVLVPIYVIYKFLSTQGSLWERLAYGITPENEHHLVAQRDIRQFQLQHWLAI
pKi: −log10 of the molar value.
I'd be grateful if you could share measured pKi for these entries.

State its pKi on Sodium-dependent noradrenaline transporter (Homo sapiens, UniProt P23975): CC(N)Cc1c[nH]c2ccc3c(c12)CCCO3 (configuration not stated) < 4.52

Same again, this time with C[C@H](N)Cc1c[nH]c2ccc3c(c12)CCCO3 < 5.00

* * *

Target: 5-hydroxytryptamine receptor 2A (Homo sapiens)
Assay: Inhibitory constant against cloned human 5-hydroxytryptamine 2A receptor using with [125I]- DOI radioligand
Readout kind: Ki (nM)
Express the result in nM but write the number alone.

Report Ki for CC(N)Cc1cn(C)c2ccc3c(c12)CCCO3 (stereo not given) please. 28

Same again, this time with C[C@H](N)Cc1c[nH]c2ccc3c(c12)CCCO3 2

Same again, this time with COc1ccc2[nH]cc(CC(C)N)c2c1 (stereo not given) 4.6

Same again, this time with CC(N)Cc1c[nH]c2ccc3c(c12)CCCO3 (stereo not given) 3.6

Same again, this time with CC(N)Cc1c[nH]c2ccc(O)cc12 (stereo not given) 12

* * *

Target: Alpha-1B adrenergic receptor (Rattus norvegicus)
Sequence (P15823 whole entry): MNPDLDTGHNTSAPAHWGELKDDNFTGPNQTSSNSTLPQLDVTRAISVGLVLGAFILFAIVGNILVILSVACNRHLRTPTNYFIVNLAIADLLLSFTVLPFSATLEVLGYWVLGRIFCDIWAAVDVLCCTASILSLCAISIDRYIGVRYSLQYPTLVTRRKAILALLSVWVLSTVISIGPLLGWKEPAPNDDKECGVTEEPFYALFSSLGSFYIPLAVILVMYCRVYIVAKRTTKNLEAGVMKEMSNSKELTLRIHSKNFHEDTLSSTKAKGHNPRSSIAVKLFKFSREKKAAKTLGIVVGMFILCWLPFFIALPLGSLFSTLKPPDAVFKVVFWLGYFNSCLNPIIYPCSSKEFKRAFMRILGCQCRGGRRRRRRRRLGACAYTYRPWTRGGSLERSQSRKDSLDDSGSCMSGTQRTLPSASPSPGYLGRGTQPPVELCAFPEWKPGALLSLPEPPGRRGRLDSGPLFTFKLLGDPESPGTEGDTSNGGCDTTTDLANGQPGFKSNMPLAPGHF
pKi: −log10 of the molar value.
Readout kind: pKi

Report pKi for C[C@H](N)Cc1c[nH]c2ccc3c(c12)CCCO3 please. < 5.00

* * *

Target: Alpha-1A adrenergic receptor (Rattus norvegicus, UniProt P43140)
Sequence (P43140 whole entry): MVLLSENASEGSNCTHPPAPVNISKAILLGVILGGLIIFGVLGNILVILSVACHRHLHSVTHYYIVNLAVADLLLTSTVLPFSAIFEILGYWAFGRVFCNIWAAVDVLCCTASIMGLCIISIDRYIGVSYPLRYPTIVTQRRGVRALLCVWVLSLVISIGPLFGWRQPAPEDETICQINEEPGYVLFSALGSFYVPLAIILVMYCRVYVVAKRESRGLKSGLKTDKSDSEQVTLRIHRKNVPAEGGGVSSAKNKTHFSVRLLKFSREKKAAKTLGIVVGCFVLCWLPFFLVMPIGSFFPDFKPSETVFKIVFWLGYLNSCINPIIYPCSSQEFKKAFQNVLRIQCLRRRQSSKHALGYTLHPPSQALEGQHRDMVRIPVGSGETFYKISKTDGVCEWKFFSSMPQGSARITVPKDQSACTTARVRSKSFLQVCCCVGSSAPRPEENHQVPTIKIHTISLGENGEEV
Assay: Inhibitory constant against Alpha-1B adrenergic receptor using [3H]-7-MeO prazosin radioligand
pKi: −log10 of the molar value.
Readout kind: pKi

Report pKi for CC(N)Cc1c[nH]c2ccc3c(c12)CCCO3 (stereo unspecified) please. < 4.52

* * *

IC50 tested on 5-hydroxytryptamine receptor 2A (Rattus norvegicus): recorded values
Sequence (P14842 whole entry): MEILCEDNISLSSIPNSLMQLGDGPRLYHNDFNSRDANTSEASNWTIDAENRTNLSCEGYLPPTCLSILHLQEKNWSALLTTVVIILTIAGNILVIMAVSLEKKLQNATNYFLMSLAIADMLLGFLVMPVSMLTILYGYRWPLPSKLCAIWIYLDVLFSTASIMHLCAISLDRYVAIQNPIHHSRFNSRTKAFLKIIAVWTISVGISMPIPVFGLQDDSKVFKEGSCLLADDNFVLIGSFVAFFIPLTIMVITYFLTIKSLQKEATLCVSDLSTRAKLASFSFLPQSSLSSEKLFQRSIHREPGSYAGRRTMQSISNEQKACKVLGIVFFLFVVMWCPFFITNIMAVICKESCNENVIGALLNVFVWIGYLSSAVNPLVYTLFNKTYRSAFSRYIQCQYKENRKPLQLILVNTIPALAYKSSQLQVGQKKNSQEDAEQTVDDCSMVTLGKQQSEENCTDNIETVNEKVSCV
Express the result in nM but write the number alone.

State its IC50 on 5-hydroxytryptamine receptor 2A (Rattus norvegicus): COc1cc(C[C@@H](C)N)c(OC)cc1I 0.4

Same again, this time with COc1ccc2[nH]cc(CC(C)N)c2c1 (stereo not drawn) 4.4

Same again, this time with CC(N)Cc1cn(C)c2ccc3c(c12)CCCO3 (stereo not drawn) 0.5

Same again, this time with C[C@@H](N)Cc1c[nH]c2ccc3c(c12)CCCO3 1.5

Same again, this time with NCCc1c[nH]c2ccc3c(c12)CCCO3 1.8

Same again, this time with C[C@H](N)Cc1c[nH]c2ccc3c(c12)CCCO3 0.5

Same again, this time with CC(N)Cc1c[nH]c2ccc3c(c12)CCCO3 (stereo not drawn) 0.7

Same again, this time with Cn1cc(CCN)c2c3c(ccc21)OCCC3 2.8

* * *

Biological target: Alpha-1A adrenergic receptor (Rattus norvegicus, UniProt P43140)
Sequence (P43140 whole entry): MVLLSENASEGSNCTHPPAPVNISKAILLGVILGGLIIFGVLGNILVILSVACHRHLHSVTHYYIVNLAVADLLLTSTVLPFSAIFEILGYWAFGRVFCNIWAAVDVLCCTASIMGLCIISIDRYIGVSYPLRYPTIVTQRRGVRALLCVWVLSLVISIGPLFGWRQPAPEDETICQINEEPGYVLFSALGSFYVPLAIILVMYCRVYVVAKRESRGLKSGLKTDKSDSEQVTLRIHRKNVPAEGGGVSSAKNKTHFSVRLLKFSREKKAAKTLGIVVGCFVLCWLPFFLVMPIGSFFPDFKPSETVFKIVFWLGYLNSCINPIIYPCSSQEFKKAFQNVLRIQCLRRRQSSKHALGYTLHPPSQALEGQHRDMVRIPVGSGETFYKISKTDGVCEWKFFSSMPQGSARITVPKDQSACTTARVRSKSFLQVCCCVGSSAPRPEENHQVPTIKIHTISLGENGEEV
Assay: Inhibitory constant against alpha-1A receptor using [3H]-7-MeO prazosin radioligand
pKi: −log10 of the molar value.
Readout kind: pKi

Report pKi for C[C@H](N)Cc1c[nH]c2ccc3c(c12)CCCO3 please. < 5.00

* * *

Ki tested on 5-hydroxytryptamine receptor 4 (Homo sapiens, UniProt Q13639): recorded values
Sequence (Q13639 whole entry): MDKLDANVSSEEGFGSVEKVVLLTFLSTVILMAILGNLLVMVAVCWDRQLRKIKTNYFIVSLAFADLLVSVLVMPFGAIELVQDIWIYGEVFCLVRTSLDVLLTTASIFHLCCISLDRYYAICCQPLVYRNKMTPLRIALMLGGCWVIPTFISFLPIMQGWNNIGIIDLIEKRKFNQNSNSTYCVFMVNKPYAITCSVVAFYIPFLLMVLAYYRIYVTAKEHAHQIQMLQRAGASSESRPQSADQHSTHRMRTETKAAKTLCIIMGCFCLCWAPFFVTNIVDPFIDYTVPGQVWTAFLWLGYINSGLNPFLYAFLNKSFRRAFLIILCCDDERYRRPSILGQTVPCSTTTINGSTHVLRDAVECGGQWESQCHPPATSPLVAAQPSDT
Express the result in µM but write the number alone.

Report Ki for CC(N)Cc1c[nH]c2ccc3c(c12)CCCO3 (configuration not stated) please. 1.8

Same again, this time with C[C@H](N)Cc1c[nH]c2ccc3c(c12)CCCO3 1.7

* * *

I'd be grateful if you could share measured Ki for these entries.
Target: 5-hydroxytryptamine receptor 2C (Homo sapiens)
Sequence (P28335 whole entry): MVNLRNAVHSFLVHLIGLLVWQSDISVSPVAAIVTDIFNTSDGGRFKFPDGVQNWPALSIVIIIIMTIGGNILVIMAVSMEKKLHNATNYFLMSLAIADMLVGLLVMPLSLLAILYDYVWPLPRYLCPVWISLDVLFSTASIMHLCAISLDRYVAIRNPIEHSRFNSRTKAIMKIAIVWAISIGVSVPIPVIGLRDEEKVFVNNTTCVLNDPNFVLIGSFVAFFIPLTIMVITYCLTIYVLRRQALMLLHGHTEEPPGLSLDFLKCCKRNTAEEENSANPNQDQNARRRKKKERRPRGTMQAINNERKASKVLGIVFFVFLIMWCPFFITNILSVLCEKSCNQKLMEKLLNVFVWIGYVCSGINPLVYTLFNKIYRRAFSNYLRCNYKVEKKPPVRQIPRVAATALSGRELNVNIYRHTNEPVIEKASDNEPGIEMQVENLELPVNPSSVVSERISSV
Express the result in nM but write the number alone.

Report Ki for CC(N)Cc1cn(C)c2ccc3c(c12)CCCO3 (stereo not drawn) please. 2.7

Same again, this time with CC(N)Cc1c[nH]c2ccc3c(c12)CCCO3 (stereo not drawn) 5.5

Same again, this time with NCCc1c[nH]c2ccc3c(c12)CCCO3 6.3

Same again, this time with COc1cc(C[C@@H](C)N)c(OC)cc1I 4

Same again, this time with COc1ccc2[nH]cc(CC(C)N)c2c1 (stereo not drawn) 8.3

Same again, this time with C[C@H](N)Cc1c[nH]c2ccc3c(c12)CCCO3 3.4

Same again, this time with C[C@@H](N)Cc1c[nH]c2ccc3c(c12)CCCO3 20

Same again, this time with CN(C)CCc1c[nH]c2ccc3c(c12)CCCO3 16

* * *

I'd be grateful if you could share measured pIC50 for these entries.
Biological target: 5-hydroxytryptamine receptor 1A (Homo sapiens, UniProt P08908)
Sequence (P08908 whole entry): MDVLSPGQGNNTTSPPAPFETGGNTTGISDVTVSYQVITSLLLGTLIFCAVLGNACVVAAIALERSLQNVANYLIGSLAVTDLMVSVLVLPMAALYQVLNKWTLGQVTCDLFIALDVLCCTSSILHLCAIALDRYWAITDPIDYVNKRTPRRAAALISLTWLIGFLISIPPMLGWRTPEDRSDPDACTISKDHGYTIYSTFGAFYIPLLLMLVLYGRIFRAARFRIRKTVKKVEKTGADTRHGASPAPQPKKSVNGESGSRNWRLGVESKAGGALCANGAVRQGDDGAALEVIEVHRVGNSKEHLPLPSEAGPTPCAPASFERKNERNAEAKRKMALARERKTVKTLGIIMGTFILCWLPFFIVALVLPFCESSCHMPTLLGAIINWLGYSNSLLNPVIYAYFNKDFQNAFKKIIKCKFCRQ
Please treat pIC50 as minus the base-10 logarithm of the molar concentration.

Report pIC50 for Cn1cc(CCN)c2c3c(ccc21)OCCC3 please. 5.08

Same again, this time with CC(N)Cc1cn(C)c2ccc3c(c12)CCCO3 (centres undefined) 4.91

Same again, this time with CN(C)CCc1c[nH]c2ccc3c(c12)CCCO3 6.25

Same again, this time with NCCc1c[nH]c2ccc3c(c12)CCCO3 6.54

Same again, this time with CC(N)Cc1c[nH]c2ccc3c(c12)CCCO3 (centres undefined) 4.96

Same again, this time with COc1ccc2[nH]cc(CC(C)N)c2c1 (centres undefined) 7.06

Same again, this time with CC(N)Cc1c[nH]c2ccc(O)cc12 (centres undefined) 7.71

Same again, this time with C[C@@H](N)Cc1c[nH]c2ccc3c(c12)CCCO3 5.06
